# measurement.notes: Microsomal stability assay, human liver microsomes (HLM)
# Assay type: in vitro ADME
# condition.summary: 0.5 mg/mL protein, 1 μM substrate
Label true when microsomal CLint at 1 μM is at or above 60 µL/min/mg; otherwise label false.

{"compound": "CC(C)NCc1cc(-c2c[nH]c(C3COc4ccc(Oc5ccnc6c5CCC(=O)N6)cc4C3)n2)cc(C(F)(F)F)c1 (stereo not shown)", "assigned.category": "false"}
{"compound": "O=C1CCc2c(Oc3ccc4c(c3)CC(c3cc(-c5ccc(C(F)(F)F)cc5)n[nH]3)CO4)ccnc2N1 (stereo not shown)", "assigned.category": "false"}
{"compound": "CN(C)Cc1cc(C(F)(F)F)c2nc(C3COc4ccc(Oc5ccnc6c5CCC(=O)N6)cc4C3)[nH]c2c1 (stereo not shown)", "assigned.category": "false"}
{"compound": "CN1CCN(Cc2cc(C(F)(F)F)c3nc(C4COc5ccc(Oc6ccnc7c6CCC(=O)N7)cc5C4)[nH]c3c2)CC1 (stereo not shown)", "assigned.category": "true"}
{"compound": "c1ccc(-c2c[nH]c(C3COc4ccc(OC5CCOCC5)cc4C3)n2)cc1 (stereo not shown)", "assigned.category": "true"}
{"compound": "COc1cccc(-c2c[nH]c(C3COc4ccc(Oc5ccnc6c5CCC(=O)N6)cc4C3)n2)c1 (stereo not shown)", "assigned.category": "true"}

Origin of the recorded values: patent US12304912B2
